# experimental-system: cdk2/cyclin E (Homo sapiens, UniProt P24941)
# Construct: made in house; host or cells: insect cells (baculovirus co-infection)
# measurement-description: Cyclin-Dependent Kinase 2 Assay (cdk2/cyclin E, GST-Rb substrate)
# Format: biochemical
# condition: recombinant cdk2/cyclin E, 10 μM ATP, 30 min at 30° C., several values in a cell = separate determinations, read-out: CDK-2 Inhibition IC50
Structures can show the parent of a compound that is named as a salt.
Consider the following compounds; for each one, report its pIC50.
Convention used: pIC50 is expressed as -log10 of the molar concentration.

# input Write down pIC50 measured for item COc1cccc(OC)c1CNc1nc(N[C@H]2CC[C@H](N)CC2)nc2c1ncn2C1CCCC1 [Example 4, dihydrochloride]
# output 4.71

# input Write down pIC50 measured for item N[C@H]1CC[C@H](Nc2nc(NC3CCN(Cc4ccc(Cl)cc4Cl)CC3)c3ncn(C4CCCC4)c3n2)CC1 [Example 147-x, trihydrochloride]
# output 6.49

# input Write down pIC50 measured for item N[C@H]1CC[C@H](Nc2nc(Nc3ccc(OC(F)(F)F)cc3)c3ncn(C4CCCC4)c3n2)CC1 [Example 5, dihydrochloride]
# output 6.64

# input Write down pIC50 measured for item N[C@H]1CC[C@H](Nc2nc(NCCNc3ccccc3)c3ncn(C4CCCC4)c3n2)CC1 [Example 31, trihydrochloride]
# output 6.40

# input Write down pIC50 measured for item N[C@H]1CC[C@H](Nc2nc(NNc3c(Cl)cccc3Cl)c3ncn(C4CCCC4)c3n2)CC1 [Example 20, dihydrochloride]
# output 6.30

# input Write down pIC50 measured for item N[C@H]1CC[C@H](Nc2nc(NNc3ccccc3F)c3ncn(C4CCCC4)c3n2)CC1 [Example 11, dihydrochloride]
# output 7.00

# input Write down pIC50 measured for item COc1ccc2[nH]cc(CCNc3nc(N[C@H]4CC[C@H](N)CC4)nc4c3ncn4C3CCCC3)c2c1 [Example 9, dihydrochloride]
# output 6.78

# input Write down pIC50 measured for item NC1CCC(Nc2nc(NC(c3ccc(Cl)cc3)C3CC3)c3ncn(C4CCCC4)c3n2)CC1 (racemic) [Example 24, dihydrochloride]
# output 4.57

# input Write down pIC50 measured for item COc1cc(CNc2nc(NC3CCC(N)CC3)nc3c2ncn3C2CCCC2)cc(OC)c1OC (centres unmarked) [Example 147-ae]
# output 6.85

# input Write down pIC50 measured for item COc1cccc(CNc2nc(N[C@H]3CC[C@H](N)CC3)nc3c2ncn3C(C)C)c1OC [Example 30, dihydrochloride]
# output 5.85

# input Write down pIC50 measured for item COc1cccc(CCNc2nc(N[C@H]3CC[C@H](N)CC3)nc3c2ncn3C2CCCC2)c1 [Example 27, dihydrochloride]
# output 6.89

# input Write down pIC50 measured for item COc1ccc(CNc2nc(N[C@H]3CC[C@H](N)CC3)nc3c2ncn3C(C)C)cc1OC [Example 19, dihydrochloride]
# output 6.27

# input Write down pIC50 measured for item COc1ccc(CNc2nc(N[C@H]3CC[C@H](N)CC3)nc3c2ncn3C2CCCC2)c(OC)c1 [Example 17, dihydrochloride]
# output 6.46

# input Write down pIC50 measured for item N[C@H]1CC[C@H](Nc2nc(NCCOCCO)c3ncn(C4CCCC4)c3n2)CC1 [Example 26, dihydrochloride]
# output 6.96
